Target: Metabotropic glutamate receptor 1 (Homo sapiens, UniProt Q13255)
Sequence (Q13255 whole entry): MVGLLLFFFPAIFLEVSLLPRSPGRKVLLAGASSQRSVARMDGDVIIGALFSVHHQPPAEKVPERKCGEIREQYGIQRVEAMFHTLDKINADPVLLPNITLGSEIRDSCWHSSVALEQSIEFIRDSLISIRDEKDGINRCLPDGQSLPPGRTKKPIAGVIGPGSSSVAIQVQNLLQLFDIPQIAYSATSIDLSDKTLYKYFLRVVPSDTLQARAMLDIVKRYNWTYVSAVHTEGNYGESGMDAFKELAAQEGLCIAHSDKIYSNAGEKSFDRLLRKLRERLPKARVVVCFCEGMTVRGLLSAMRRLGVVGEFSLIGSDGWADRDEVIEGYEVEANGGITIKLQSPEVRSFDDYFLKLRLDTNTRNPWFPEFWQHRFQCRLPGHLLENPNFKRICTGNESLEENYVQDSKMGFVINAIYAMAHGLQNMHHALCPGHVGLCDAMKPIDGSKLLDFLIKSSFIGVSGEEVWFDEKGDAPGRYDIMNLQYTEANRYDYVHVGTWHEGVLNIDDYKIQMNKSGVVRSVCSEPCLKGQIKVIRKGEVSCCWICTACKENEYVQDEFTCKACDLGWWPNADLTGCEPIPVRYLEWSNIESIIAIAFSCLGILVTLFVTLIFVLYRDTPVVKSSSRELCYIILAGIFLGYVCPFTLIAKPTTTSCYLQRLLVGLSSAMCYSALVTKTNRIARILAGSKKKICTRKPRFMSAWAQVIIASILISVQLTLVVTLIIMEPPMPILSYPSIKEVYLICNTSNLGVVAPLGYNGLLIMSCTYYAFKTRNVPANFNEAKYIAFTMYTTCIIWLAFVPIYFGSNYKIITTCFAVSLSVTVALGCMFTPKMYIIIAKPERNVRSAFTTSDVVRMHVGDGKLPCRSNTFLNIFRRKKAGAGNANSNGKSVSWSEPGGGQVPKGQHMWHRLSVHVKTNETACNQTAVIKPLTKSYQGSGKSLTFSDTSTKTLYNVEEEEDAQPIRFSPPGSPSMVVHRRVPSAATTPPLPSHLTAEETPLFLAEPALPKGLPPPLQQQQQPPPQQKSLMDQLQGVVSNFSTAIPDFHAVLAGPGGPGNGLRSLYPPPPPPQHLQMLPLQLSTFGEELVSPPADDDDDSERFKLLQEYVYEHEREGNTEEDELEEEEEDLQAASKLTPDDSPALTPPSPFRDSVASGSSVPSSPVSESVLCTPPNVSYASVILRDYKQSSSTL
Test: Positive allosteric modulatory activity at human mGlu1 receptor expressed in wild type T-Rex293 cells assessed as increase in glutamate-induced calcium mobilization pre-incubated for 2.5 mins before glutamate stimulation for 1 min
Format: functional, cell-based
Details: read-out: EC50
EC50: recorded values
A number alone suffices; assume nM.

compound_string: Cc1scnc1C(=O)Nc1ccc(N2Cc3cccc(Cl)c3C2=O)c(Cl)c1
assayed_target: Metabotropic glutamate receptor 1 (Homo sapiens, UniProt Q13255)
EC50 [nM]: 4690

compound_string: Cc1ccoc1C(=O)Nc1ccc(N2Cc3c(Br)cccc3C2=O)c(Cl)c1
assayed_target: Metabotropic glutamate receptor 1 (Homo sapiens, UniProt Q13255)
EC50 [nM]: 391

compound_string: Cc1ccoc1C(=O)Nc1ccc(N2Cc3c(C#N)cccc3C2=O)c(Cl)c1
assayed_target: Metabotropic glutamate receptor 1 (Homo sapiens, UniProt Q13255)
EC50 [nM]: 2090

compound_string: Cc1ccoc1C(=O)Nc1ccc(N2Cc3cccc(Cl)c3C2=O)cc1
assayed_target: Metabotropic glutamate receptor 1 (Homo sapiens, UniProt Q13255)
EC50 [nM]: 353

compound_string: Cc1ccoc1C(=O)Nc1ccc(N2Cc3cccc(Cl)c3C2=O)c(Cl)c1
assayed_target: Metabotropic glutamate receptor 1 (Homo sapiens, UniProt Q13255)
EC50 [nM]: 484

Entry `Cc1ccoc1C(=O)Nc1ccc(N2Cc3ccccc3C2)c(Cl)c1` , EC50 reported as 1760

Entry `O=C(Nc1ccc(N2Cc3c(Cl)cccc3C2=O)c(Cl)c1)c1ncccc1Cl` , EC50 reported as 1270

Entry `Cc1ccc2c(c1)C(=O)N(c1ccc(NC(=O)c3occc3C)c(F)c1)C2=O` , EC50 reported as 25.7

Entry `Cc1ccoc1C(=O)Nc1ccc(N2C(=O)Cc3ccccc3C2=O)c(Cl)c1` , EC50 reported as 242

Entry `Cc1ccoc1C(=O)Nc1ccc(N2Cc3ccccc3C2=O)cc1` , EC50 reported as 1560

Entry `Cc1ccoc1C(=O)Nc1ccc(N2CCOc3ccccc32)c(Cl)c1` , EC50 reported as 3620

Entry `Cc1ccoc1C(=O)Nc1ccc(N2Cc3c(Cl)cccc3C2=O)cc1F` , EC50 reported as 1260
